Where these numbers come from: patent US10639298B2

test_description: Rat pharmacokinetic studies of prodrug and released riluzole (IV or oral)
Assay type: in vivo, Sprague-Dawley rats
cond: rat, plasma; fasted male Sprague Dawley rats, IV, prodrug dose 2.8 mg/Kg; read-out: Compound of the disclosure t1/2 (converted)
Experimental: Rat Pharmacokinetic Studies of the Compounds of the Disclosure: Blood samples were collected at pre-determined time points including a 0 h time point and usually between 7 and 8 additional time points not exceeding a 24 h period. Plasma samples were extracted and analyzed using the methods described in Plasma Sample Extraction and Analysis. All data are expressed as ng/mL of the free base. Samples that were below the limit of quantification (0.5 ng/mL) were not used in the calculation of averages. […]
I'd appreciate it if you could supply half-life values for the items below.
Give bare numbers, in h.

Consider the following illustrative entries.
>>> df
                                smiles_repr  unit_info  obs_value
0  CN(CC(=O)Nc1nc2ccc(OC(F)(F)F)cc2s1)C(=O)C1(CN)CC1          h        9.3
1  CN(CC(=O)Nc1nc2ccc(OC(F)(F)F)cc2s1)C(=O)CNC1COC1          h        1.5

Field: next compound
### Prompt Return the recorded half-life value; entry: CNCC(=O)NC(C)(C)C(=O)Nc1nc2ccc(OC(F)(F)F)cc2s1
### Response 6.51
